Test: in vitro
Details: human, hela cells, % viability
This section presents compounds with their documented viability at 28.5 h, 10 µM values.

COMPOUND	VALUE_UNITS	viability at 28.5 h, 10 µM
CC(=O)Nc1ccc(CNC(=O)CN2CCCC(c3ncc[nH]3)C2)cc1 (centres unmarked)	%	96.5
CN(C)CCN(C)Cc1ccccc1O	%	103
Cn1nccc1CN1CCCC(COc2ccc(F)cc2)C1 (centres unmarked)	%	95.2
NS(=O)(=O)c1ccc(NC(=S)N2CCN(CCO)CC2)cc1	%	87.5
CCCS(=O)(=O)N1CCN(Cc2cc(Br)ccc2O)CC1 [CBK264165G]	%	102
